Quick list: viability at 24 h, 1 µM per entry.
# protocolDescription: MTT assay in H1299 cells
# Assay type: cell-based
# conditionDescription: human, H1299 cells (H1299/PhTERT-driven SEAP reporter system); H1299; compound concentration 1 μM; read-out: MTT (Inhibition μM ± SD)
Quick note: give the figure in %, leave out the unit.

{"columns": ["chemicalString", "unitTag", "viability at 24 h, 1 µM"],
 "data": [
  ["O=C(CCN1CCCCC1)Nc1ccc2c(c1)C(=O)c1cc(NC(=O)CCN3CCCCC3)ccc1C2=O", "%", 87],
  ["O=C(CCCCl)Nc1ccc2c(c1)C(=O)c1cc(NC(=O)CCCCl)ccc1C2=O", "%", 84],
  ["CN(C)CC(=O)Nc1ccc2c(c1)C(=O)c1cc(NC(=O)CN(C)C)ccc1C2=O", "%", 92],
  ["CN1CCN(CCC(=O)Nc2ccc3c(c2)C(=O)c2cc(NC(=O)CCN4CCN(C)CC4)ccc2C3=O)CC1", "%", 95],
  ["O=C1c2ccc(NC(=O)C3CCCCC3)cc2C(=O)c2cc(NC(=O)C3CCCCC3)ccc21", "%", 90],
  ["CCNCCC(=O)Nc1ccc2c(c1)C(=O)c1cc(NC(=O)CCNCC)ccc1C2=O", "%", 86]
]}

Q: Fill in the blank: the reported viability at 24 h, 1 µM of "CC(C)CNCC(=O)Nc1ccc2c(c1)C(=O)c1cc(NC(=O)CNCC(C)C)ccc1C2=O" is ____.
Result: 108

Q: Fill in the blank: the reported viability at 24 h, 1 µM of "CCN(CC)CC(=O)Nc1ccc2c(c1)C(=O)c1cc(NC(=O)CN(CC)CC)ccc1C2=O" is ____.
Result: 101

Q: Fill in the blank: the reported viability at 24 h, 1 µM of "CN1CCN(CC(=O)Nc2ccc3c(c2)C(=O)c2cc(NC(=O)CN4CCN(C)CC4)ccc2C3=O)CC1" is ____.
Result: 90

Q: Fill in the blank: the reported viability at 24 h, 1 µM of "CCC(=O)Nc1ccc2c(c1)C(=O)c1cc(NC(=O)CC)ccc1C2=O" is ____.
Result: 70

Q: Fill in the blank: the reported viability at 24 h, 1 µM of "O=C(CCN1CCCC1)Nc1ccc2c(c1)C(=O)c1cc(NC(=O)CCN3CCCC3)ccc1C2=O" is ____.
Result: 87

Q: Fill in the blank: the reported viability at 24 h, 1 µM of "O=C(CN1CCCCC1)Nc1ccc2c(c1)C(=O)c1cc(NC(=O)CN3CCCCC3)ccc1C2=O" is ____.
Result: 50

Q: Fill in the blank: the reported viability at 24 h, 1 µM of "O=C(CCl)Nc1ccc2c(c1)C(=O)c1cc(NC(=O)CCl)ccc1C2=O" is ____.
Result: 58

Q: Fill in the blank: the reported viability at 24 h, 1 µM of "O=C1c2ccc(NC(=O)C3CC3)cc2C(=O)c2cc(NC(=O)C3CC3)ccc21" is ____.
Result: 46

---

# System: hTERT expression
# protocolDescription: SEAP assay in hTERT-BJ1-PTERT(3.4)-SEAP cells
# Format: cell-based
# conditionDescription: Homo sapiens; BJ1; compound concentration 10 μM; read-out: SEAP (Inhibition μM ± SD)
activity at 10 µM strictly under 70% means label 1; at 70% or over means label 0.

Completed entries (count: 3):
{"columns": ["molecule", "group"],
 "data": [
  ["O=C(CCc1ccccc1)Nc1ccc2c(c1)C(=O)c1cc(NC(=O)CCc3ccccc3)ccc1C2=O [Compound 31, 2,7-Bis(phenylpropionamido)anthraquinone]", "label 0"],
  ["CCN(CC)CCC(=O)Nc1ccc2c(c1)C(=O)c1cc(NC(=O)CCN(CC)CC)ccc1C2=O [Compound 16]", "label 1"],
  ["O=C1c2ccc([N+](=O)[O-])cc2C(=O)c2cc([N+](=O)[O-])ccc21 [Compound 1, 2,7-dinitroanthraquinone]", "label 1"]
]}

Q: Is it true that activity at 10 µM reported for CC(C)CNCC(=O)Nc1ccc2c(c1)C(=O)c1cc(NC(=O)CNCC(C)C)ccc1C2=O [Compound 14] is less than 70%?
Result: label 1

Q: Is it true that activity at 10 µM reported for CCCNCCC(=O)Nc1ccc2c(c1)C(=O)c1cc(NC(=O)CCNCCC)ccc1C2=O [Compound 21] is less than 70%?
Result: label 0

Q: Is it true that activity at 10 µM reported for O=C(Cc1ccccc1)Nc1ccc2c(c1)C(=O)c1cc(NC(=O)Cc3ccccc3)ccc1C2=O [Compound 30, 2,7-Bis(phenylacetamido)anthraquinone] is less than 70%?
Result: label 0
